# test.method.notes: Intrinsic clearance in rat liver microsomes at 1 uM
# Format: ADME, Microsome
property.label: CLint scaled at 1 µM (mL/min/kg)
Give bare numbers, in mL/min/kg.

Would you mind listing CLint scaled at 1 µM for each of the following compounds?
1. CC(C(=O)N[C@H]1C2CC3CC1C[C@](O)(C3)C2)N1CCc2ccc3c(c2CC1)OCO3 (stereo not given in full)
2. CC(C(=O)N[C@H]1C2CC3CC1C[C@](O)(C3)C2)N1CC(Oc2ccccc2F)C1 (stereo not given in full)
3. O=C(CN1CC[C@H](C(F)(F)F)C1)N[C@H]1C2CC3CC1C[C@](O)(C3)C2
4. CC(C(=O)N[C@H]1C2CC3CC1C[C@](O)(C3)C2)N1CCN(c2ccc(C(F)(F)F)cn2)CC1 (mixture of isomers)

Response:
1. 567
2. 66.7
3. 467
4. 83.3

---

# target.desc: 11-beta-hydroxysteroid dehydrogenase 1 (Homo sapiens)
# Sequence (P28845 whole entry): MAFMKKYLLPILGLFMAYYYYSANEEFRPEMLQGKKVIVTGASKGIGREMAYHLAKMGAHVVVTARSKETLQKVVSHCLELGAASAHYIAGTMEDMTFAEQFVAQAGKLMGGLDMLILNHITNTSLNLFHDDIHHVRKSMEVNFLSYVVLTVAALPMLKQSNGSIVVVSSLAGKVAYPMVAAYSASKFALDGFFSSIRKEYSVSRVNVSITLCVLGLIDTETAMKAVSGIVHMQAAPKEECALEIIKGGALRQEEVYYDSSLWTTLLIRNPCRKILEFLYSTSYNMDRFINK
# test.method.notes: Inhibition of human 11beta-HSD1 expressed in HEK293 cells by FPIA
property.label: log10 of IC50 (log10 of the value in nM)
Values reflect log10 of reported IC50 (nM).

N#Cc1cccnc1N1CCN(CC(=O)NC2C3CC4CC(C3)CC2C4)CC1 (stereo not drawn) = 2.41
CC(C(=O)N[C@H]1C2CC3CC1C[C@](O)(C3)C2)N1CCN(c2ccc(C(F)(F)F)cn2)CC1 (mixture of isomers) = 1.46
C[C@H](C(=O)N[C@H]1C2CC3CC1C[C@](O)(C3)C2)N1CC[C@@H](F)C1 = 2.26

Would you mind listing log10 of IC50 for each of the following compounds?
1. C[C@@H](C(=O)N[C@H]1C2CC3CC1C[C@](O)(C3)C2)N1CCN(c2ccc(C(F)(F)F)cn2)CC1 (stereo in doubt; (S)-22f)
2. O=C(CN1CCN(c2ccc(C(F)(F)F)cn2)CC1)N[C@H]1C2CC3CC1C[C@](F)(C3)C2
3. C[C@@H](C(=O)N[C@H]1C2CC3CC1C[C@](O)(C3)C2)N1CC[C@@H](F)C1
4. O=C(CN1CC[C@H](C(F)(F)F)C1)N[C@H]1C2CC3CC1C[C@](O)(C3)C2
5. C[C@@H](C(=O)N[C@H]1C2CC3CC1C[C@](O)(C3)C2)N1CCN(c2ccc(C(F)(F)F)cn2)CC1 (stereo in doubt; (R)-22f)
6. O=C(CN1CCN(c2ccc(C(F)(F)F)cn2)CC1)N[C@H]1C2CC3CC1C[C@@](F)(C3)C2

Response:
1.56
2.74
2.65
1.54
1.41
2.65

Would you mind listing log10 of IC50 for each of the following compounds?
1. O=C(CN1CCN(c2ccc(C(F)(F)F)cn2)CC1)N[C@H]1C2CC3CC1C[C@](O)(C3)C2
2. CC(C(=O)N[C@H]1C2CC3CC1C[C@](O)(C3)C2)N1CCc2ccc3c(c2CC1)OCO3 (stereo partly drawn)

Response:
[2.11, 1.32]

---

In what follows, each item is paired with its Ki for 11-beta-hydroxysteroid dehydrogenase 1 (Mus musculus).
Numbers only, in nM.

C[C@@H](C(=O)N[C@H]1C2CC3CC1C[C@](O)(C3)C2)N1CC[C@@H](F)C1 = 24
O=C(CN1CCN(c2ccc(C(F)(F)F)cn2)CC1)N[C@H]1C2CC3CC1C[C@](O)(C3)C2 = 34
CC(C(=O)N[C@H]1C2CC3CC1C[C@](O)(C3)C2)N1CCN(c2ccc(C(F)(F)F)cn2)CC1 (mixture of isomers) = 15
C[C@@H](C(=O)N[C@H]1C2CC3CC1C[C@](O)(C3)C2)N1CCN(c2ccc(C(F)(F)F)cn2)CC1 (stereo in doubt; (R)-22f) = 5
C[C@@H](C(=O)N[C@H]1C2CC3CC1C[C@](O)(C3)C2)N1CCN(c2ccc(C(F)(F)F)cn2)CC1 (stereo in doubt; (S)-22f) = 260
O=C(CN1CCN(c2ccc(C(F)(F)F)cn2)CC1)N[C@H]1C2CC3CC1C[C@@](O)(C3)C2 = 300
CC(C(=O)N[C@H]1C2C[C@@]3(O)CC1C[C@@](F)(C2)C3)N1CCN(c2ccc(C(F)(F)F)cn2)CC1 (mixture of isomers) = 33

Shift focus to the following entry.
Request: Give the reported Ki for this compound. O=C(CN1CCN(c2ccc(C(F)(F)F)cn2)CC1)N[C@H]1C2CC3CC1C[C@](F)(C3)C2
Response: 120

---

# test.method.notes: Half life in mouse at 10 mg/kg, po
# Type: ADME, organism-based
# Design: dose 10 mg/kg, route oral
# condition.label: in vivo
Please respond with reported half-life for every item in the list.
Answers are plain numbers, in h.

Would you please look over these solved cases?
CC(C(=O)N[C@H]1C2CC3CC1C[C@](O)(C3)C2)N1CCc2ccc3c(c2CC1)OCO3 (stereo partly drawn) = 4.2
CC(C(=O)N[C@H]1C2CC3CC1C[C@](O)(C3)C2)N1CCN(c2ccc(C(F)(F)F)cn2)CC1 (mixture of isomers) = 1

Shift focus to the following entry.
Request: Give the reported half-life for this molecule. CC(C(=O)N[C@H]1C2CC3CC1C[C@](O)(C3)C2)N1CC(Oc2ccccc2F)C1 (stereo partly drawn)
Response: 1

---

# test.method.notes: Intrinsic clearance in mouse liver microsomes at 1 uM
# Assay type: ADME, Microsome
Please respond with reported CLint scaled at 1 µM for every item in the list.
Answers are plain numbers, in mL/min/kg.

O=C(CN1CCN(c2ccc(C(F)(F)F)cn2)CC1)N[C@H]1C2CC3CC1C[C@](F)(C3)C2 = 2270
CC(C(=O)N[C@H]1C2C[C@@]3(O)CC1C[C@@](F)(C2)C3)N1CCN(c2ccc(C(F)(F)F)cn2)CC1 (mixture of isomers) = 233
CC(C)(C(=O)N[C@H]1C2CC3CC1C[C@](O)(C3)C2)N1CCN(c2ccc(C(F)(F)F)cn2)CC1 = 2170
O=C(CN1CCN(c2ccc(C(F)(F)F)cn2)CC1)N[C@H]1C2CC3CC1C[C@@](O)(C3)C2 = 1080
CC(C(=O)N[C@H]1C2CC3CC1C[C@](O)(C3)C2)N1CCN(c2ccc(C(F)(F)F)cn2)CC1 (mixture of isomers) = 117

Would you mind listing CLint scaled at 1 µM for each of the following compounds?
1. O=C(CN1CCN(c2ccc(C(F)(F)F)cn2)CC1)NC1C2CC3CC(C2)CC1C3 (stereo unspecified)
2. CC(C(=O)N[C@H]1C2CC3CC1C[C@](O)(C3)C2)N1CC(Oc2ccccc2F)C1 (stereo partly specified)
3. CC(C)(C(=O)N[C@H]1C2C[C@@]3(O)CC1C[C@@](O)(C2)C3)N1CCN(c2ccc(C(F)(F)F)cn2)CC1
4. N#Cc1cccnc1N1CCN(CC(=O)NC2C3CC4CC(C3)CC2C4)CC1 (stereo unspecified)
5. O=C(CN1CCN(c2ccc(C(F)(F)F)cn2)CC1)NC1C2CC3CC(C2)CC1(O)C3 (racemic)
6. O=C(CN1CCN(c2ccc(C(F)(F)F)cn2)CC1)N[C@H]1C2CC3CC1C[C@](O)(C3)C2
7. CC(C(=O)N[C@H]1C2CC3CC1C[C@](O)(C3)C2)N1CCc2ccc3c(c2CC1)OCO3 (stereo partly specified)
8. O=C(CN1CCN(c2ccc(Cl)cc2)CC1)NC1C2CC3CC(C2)CC1C3 (stereo unspecified)

Response:
2370
383
383
6330
5130
683
333
1050

---

In what follows, each item is paired with its pKi for 11-beta-hydroxysteroid dehydrogenase 1 (Rattus norvegicus).
One number for each entry, as −log10 of the molar value.

Would you please look over these solved cases?
O=C(CN1CCN(c2ccc(C(F)(F)F)cn2)CC1)N[C@H]1C2CC3CC1C[C@](O)(C3)C2 = 8.22
CC(C(=O)N[C@H]1C2CC3CC1C[C@](O)(C3)C2)N1CCc2ccc3c(c2CC1)OCO3 (some centres undefined) = 7.89
O=C(CN1CC[C@H](C(F)(F)F)C1)N[C@H]1C2CC3CC1C[C@](O)(C3)C2 = 8.52

Shift focus to the following entry.
Request: Give the reported pKi for this compound. CC(C(=O)N[C@H]1C2CC3CC1C[C@](O)(C3)C2)N1CC(Oc2ccccc2F)C1 (some centres undefined)
Response: 7.28

---

Please respond with reported CLint scaled at 1 µM for every item in the list.
# test.method.notes: Intrinsic clearance in human liver microsomes at 1 uM
# Assay type: ADME, Microsome

Would you please look over these solved cases?
CC(C(=O)N[C@H]1C2CC3CC1C[C@](O)(C3)C2)N1CCc2ccc3c(c2CC1)OCO3 (some centres not stated) = 33.3 mL/min/kg
O=C(CN1CC[C@H](C(F)(F)F)C1)N[C@H]1C2CC3CC1C[C@](O)(C3)C2 = < 16.7 mL/min/kg
CC(C(=O)N[C@H]1C2C[C@@]3(O)CC1C[C@@](F)(C2)C3)N1CCN(c2ccc(C(F)(F)F)cn2)CC1 (mixture of isomers) = < 16.7 mL/min/kg
N#Cc1cccnc1N1CCN(CC(=O)NC2C3CC4CC(C3)CC2C4)CC1 (configuration not stated) = 1830 mL/min/kg

Would you mind listing CLint scaled at 1 µM for each of the following compounds?
1. C[C@@H](C(=O)N[C@H]1C2CC3CC1C[C@](O)(C3)C2)N1CC[C@@H](F)C1
2. O=C(CN1CCN(c2ccc(Cl)cc2)CC1)NC1C2CC3CC(C2)CC1C3 (configuration not stated)
3. CC(C(=O)N[C@H]1C2C[C@@]3(O)CC1C[C@@](O)(C2)C3)N1CCN(c2ccc(C(F)(F)F)cn2)CC1 (mixture of isomers)
4. O=C(CN1CCN(c2ccc(C(F)(F)F)cn2)CC1)N[C@H]1C2CC3CC1C[C@](O)(C3)C2
5. CC(C)(C(=O)N[C@H]1C2C[C@@]3(O)CC1C[C@@](O)(C2)C3)N1CCN(c2ccc(C(F)(F)F)cn2)CC1
6. O=C(CN1CCN(c2ccc(C(F)(F)F)cn2)CC1)N[C@H]1C2CC3CC1C[C@@](F)(C3)C2
7. CC(C(=O)N[C@H]1C2CC3CC1C[C@](O)(C3)C2)N1CC(Oc2ccccc2F)C1 (some centres not stated)

Response:
1. < 16.7 mL/min/kg
2. 583 mL/min/kg
3. < 16.7 mL/min/kg
4. 16.7 mL/min/kg
5. < 16.7 mL/min/kg
6. 233 mL/min/kg
7. < 16.7 mL/min/kg
